# Assay Protocol: Tigecycline plasma PK and % F after PO enteric-coated capsule in dogs
# Format: in vivo, Beagle dogs
# Condition: female, beagle, dog, plasma, po, 15 mg, 15 mg Formulated (500 mg CA, 100 mg LLC) enteric coated capsule, Study 1 (SC424); mean (% CV); read-out: Cmax
Metric: Cmax (ng/mL)
The response must be a number in ng/mL with no trailing unit.

So what's the measured Cmax for this one? CN(C)c1cc(NC(=O)CNC(C)(C)C)c(O)c2c1C[C@H]1C[C@H]3[C@H](N(C)C)C(O)=C(C(N)=O)C(=O)[C@@]3(O)C(O)=C1C2=O [Tigecycline]
75.5

###

# Assay Protocol: Tigecycline plasma PK and % F after PO enteric-coated capsule in dogs
# Assay type: in vivo, Beagle dogs
# Condition: female, beagle, dog, plasma, po, 30 mg, Tigecycline Plasma Concentration, 8.0 hr; PO 30 mg unformulated enteric-coated capsule, SC430; mean
Metric: concentration at 8 hr (ng/mL)
The response must be a number in ng/mL with no trailing unit.

So what's the measured concentration at 8 hr for this one? CN(C)c1cc(NC(=O)CNC(C)(C)C)c(O)c2c1C[C@H]1C[C@H]3[C@H](N(C)C)C(O)=C(C(N)=O)C(=O)[C@@]3(O)C(O)=C1C2=O
0

###

# Assay Protocol: Tigecycline plasma PK after IV bolus in dogs
# Format: in vivo, Beagle dogs
# Condition: female, beagle, dog, plasma, intravenous, 1 mg, Tigecycline Plasma Concentration, 60 min; 1 mg IV in PBS (0.08 mg/kg), SC427; mean
Metric: concentration at 60 min (ng/mL)
The response must be a number in ng/mL with no trailing unit.

So what's the measured concentration at 60 min for this one? CN(C)c1cc(NC(=O)CNC(C)(C)C)c(O)c2c1C[C@H]1C[C@H]3[C@H](N(C)C)C(O)=C(C(N)=O)C(=O)[C@@]3(O)C(O)=C1C2=O [Tigecycline]
13.5

###

# Assay Protocol: Tigecycline plasma PK and % F after intraduodenal (ID) injection in anesthetized rats
# Assay type: in vivo, Sprague-Dawley Rats
# Condition: female, Sprague-Dawley, rat, plasma, other: intraduodenal bolus injection, 9 mg/kg, ID, PBS, 9.0 mg/kg (RA853), animal RA853-4 only; 30 min
Metric: concentration at 30 min (ng/mL)
The response must be a number in ng/mL with no trailing unit.

So what's the measured concentration at 30 min for this one? CN(C)c1cc(NC(=O)CNC(C)(C)C)c(O)c2c1C[C@H]1C[C@H]3[C@H](N(C)C)C(O)=C(C(N)=O)C(=O)[C@@]3(O)C(O)=C1C2=O
391

###

# Assay Protocol: Tigecycline plasma PK and % F after intraduodenal (ID) injection in anesthetized rats
# Format: in vivo, Sprague-Dawley Rats
# Condition: female, Sprague-Dawley, rat, plasma, 4.8 mg/kg, pH 3.5, RA867, ID, 400 mM CA/26 mM LLC pH 3.5, 4.8 mg/kg
# Experimental: Animals weighed approximately 250 g at the time of testing. Rats were fasted overnight (with water available), prior to dosing. Intravenous (IV) doses were administered as a bolus injection into the left carotid […] at a dose volume of 1.6 mL/kg. […] Female rats were maintained in groups of 3 per polycarbonate (or equivalent) shoebox cage with fresh wood chip bedding at 20-22° C. under a 12 hour on/off light:dark cycle. […] Animal weights were determined post-anesthesia induction. […]
Metric: Tmax (min)
The response must be a number in min with no trailing unit.

So what's the measured Tmax for this one? CN(C)c1cc(NC(=O)CNC(C)(C)C)c(O)c2c1C[C@H]1C[C@H]3[C@H](N(C)C)C(O)=C(C(N)=O)C(=O)[C@@]3(O)C(O)=C1C2=O
12

Data provenance is patent US9526785B2.
